SYSTEM_UNDER_TEST: Neuronal acetylcholine receptor; alpha4/beta2 (Rattus norvegicus, UniProt P09483+P12390)
Sequence (P09483 whole entry): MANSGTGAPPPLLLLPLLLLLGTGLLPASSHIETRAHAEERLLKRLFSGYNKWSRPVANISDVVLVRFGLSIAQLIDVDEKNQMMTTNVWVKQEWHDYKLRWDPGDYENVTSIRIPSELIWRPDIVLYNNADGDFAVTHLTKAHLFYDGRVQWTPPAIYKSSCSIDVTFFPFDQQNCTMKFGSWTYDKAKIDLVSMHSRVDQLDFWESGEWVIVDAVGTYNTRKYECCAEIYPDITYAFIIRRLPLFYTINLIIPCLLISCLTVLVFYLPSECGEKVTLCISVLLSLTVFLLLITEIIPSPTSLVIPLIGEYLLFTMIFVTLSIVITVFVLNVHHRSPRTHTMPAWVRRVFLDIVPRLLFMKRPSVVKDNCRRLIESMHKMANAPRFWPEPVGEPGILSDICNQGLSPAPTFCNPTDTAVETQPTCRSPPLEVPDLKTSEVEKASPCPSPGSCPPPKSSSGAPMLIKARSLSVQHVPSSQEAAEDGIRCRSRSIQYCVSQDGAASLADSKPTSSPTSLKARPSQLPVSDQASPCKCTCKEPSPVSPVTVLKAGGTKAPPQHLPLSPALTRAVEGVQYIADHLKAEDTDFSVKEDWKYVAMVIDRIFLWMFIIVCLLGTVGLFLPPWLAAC
Sequence (P12390 whole entry): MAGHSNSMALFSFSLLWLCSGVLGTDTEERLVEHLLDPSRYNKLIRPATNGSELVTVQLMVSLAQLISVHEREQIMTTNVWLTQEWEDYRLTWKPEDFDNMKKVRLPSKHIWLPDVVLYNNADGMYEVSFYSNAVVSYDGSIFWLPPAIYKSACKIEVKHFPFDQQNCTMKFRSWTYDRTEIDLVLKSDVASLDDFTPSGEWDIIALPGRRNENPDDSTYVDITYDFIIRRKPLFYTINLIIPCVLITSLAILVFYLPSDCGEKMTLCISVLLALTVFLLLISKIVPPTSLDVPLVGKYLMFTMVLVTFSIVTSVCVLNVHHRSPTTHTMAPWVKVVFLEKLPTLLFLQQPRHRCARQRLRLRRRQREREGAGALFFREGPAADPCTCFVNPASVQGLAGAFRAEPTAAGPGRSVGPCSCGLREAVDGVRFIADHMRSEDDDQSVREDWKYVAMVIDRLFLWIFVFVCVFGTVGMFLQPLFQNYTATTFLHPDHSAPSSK
PROTOCOL_DETAILS: Affinity at alpha4-beta2 nACh receptors in rat brain (minus cerebellum) homogenates.
RECORDED_ENDPOINT: pKi
In plain terms, pKi is the concentration in mol/L turned into minus its base-10 logarithm.

Ask: For the compound shown here, COc1ccc(CC2=NCCN2C)cn1 , give the reported pKi.
Result: 7.34

Ask: What do you have for CN1CCN=C1Cc1ccc(-c2ccccc2)nc1 ?
Result: 5.49

Ask: What do you have for CN1CCCC1c1ccc(Cl)nc1 (stereo not drawn) ?
Result: 9.22

Data credit: ChEMBL document CHEMBL1145761
